# reported IC50; entries follow
# SYSTEM_NAME: β-lactamase (Citrobacter freundii, UniProt P05193)
# Construct: Various β-lactamases can be isolated from penicillin- or cephalosporin-resistant bacterial strains such as; endogenous in cells; host or cells: Citrobacter freundii 1203 (enzyme purified from the crude cell extract, after ampicillin induction when necessary)
# Sequence (P05193 21-381): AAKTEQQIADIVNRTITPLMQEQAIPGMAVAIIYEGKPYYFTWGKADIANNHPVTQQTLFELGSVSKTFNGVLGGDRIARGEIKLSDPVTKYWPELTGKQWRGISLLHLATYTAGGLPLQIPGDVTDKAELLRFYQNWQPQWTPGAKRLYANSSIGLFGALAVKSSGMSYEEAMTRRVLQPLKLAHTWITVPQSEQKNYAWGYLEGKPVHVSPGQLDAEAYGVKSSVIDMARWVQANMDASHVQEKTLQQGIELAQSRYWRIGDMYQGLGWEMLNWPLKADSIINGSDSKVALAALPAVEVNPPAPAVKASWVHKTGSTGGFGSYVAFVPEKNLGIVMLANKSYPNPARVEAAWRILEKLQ
# EXPERIMENT_DESCRIPTION: biochemical
# CONDITIONS_USED: IC 50 nM, isolated β-lactamase of Citrobacter freundii; substrate nitrocefin 0.1 mM; 15 minutes pre-incubation with inhibitor; 37° C., pH 7.0
Where a name gives a salt, the structure may show the parent alone.
READOUT: IC50 (nM)

COMPOUND	READOUT	SCALE_UNIT	ENDPOINT_VALUE
NC(=O)/C=C1\CN(C(=O)OCc2ccccc2)[C@@H]2C(=O)N(S(=O)(=O)O)[C@H]12 [14(b), sodium salt]	IC50	nM	65
O=C(Cn1cnnn1)N1CC[C@@H]2[C@H]1C(=O)N2S(=O)(=O)[O-].[Na+] [8(b), sodium salt]	IC50	nM	500
CC(=O)Oc1ccc(/C=C/C(=O)N2CC[C@@H]3[C@H]2C(=O)N3S(=O)(=O)[O-])cc1OC(C)=O.[Na+] [Example 13, diacetate sodium salt]	IC50	nM	63
O=C(CCc1ccccc1)N1CC[C@@H]2[C@H]1C(=O)N2S(=O)(=O)[O-].[Na+] [11(b), sodium salt]	IC50	nM	573

----------
# reported MIC; entries follow
# System: Citrobacter freundii
# EXPERIMENT_DESCRIPTION: MIC in vitro of a 1:4 combination of ceftriaxone with a compound of formula I (test D)
# Assay type: cell-based
# CONDITIONS_USED: 1:4 combination of ceftriaxone with the compound
READOUT: MIC (mg/L)

COMPOUND	SCALE_UNIT	ENDPOINT_VALUE
N[C@H](Cc1ccccc1)C(=O)N1CC[C@@H]2[C@H]1C(=O)N2S(=O)(=O)O [4(f)]	mg/L	4
Cn1nnnc1CNC(=O)N1CC[C@@H]2[C@H]1C(=O)N2S(=O)(=O)[O-].[Na+] [17(z)]	mg/L	1
CSCC[C@@H](NC(=O)c1ccccc1)C(=O)N1CC[C@@H]2[C@H]1C(=O)N2S(=O)(=O)O.[Na] [5(h)]	mg/L	4
Nc1nc(SCC(=O)N2CC[C@@H]3[C@H]2C(=O)N3S(=O)(=O)[O-])n(C(=O)OCc2ccccc2)n1.[Na+] [23(g)]	mg/L	2
N[C@@H](C(=O)N1CC[C@@H]2[C@H]1C(=O)N2S(=O)(=O)O)c1ccccc1 [4(b)]	mg/L	2
O=C(NCC1CCCCC1)N1CC[C@@H]2[C@H]1C(=O)N2S(=O)(=O)[O-].[Na+] [17(m)]	mg/L	16
COc1cc(CNC(=O)N2CC[C@@H]3[C@H]2C(=O)N3S(=O)(=O)[O-])on1.[Na+] [17(aa)]	mg/L	0.5
